Ref: PubChem BioAssay (NCI)

Test system: HL-60(TB) leukemia
Test: NCI-60 one-dose screen, 48 h (100 = growth as untreated, 0 = no growth, -100 = all killed)
Details: 10 µM unless noted
Compounds without any hit were thinned out: in the full panel of roughly 83,000, 20% have a hit. Active and inactive are the calls of the source. The calls were made as follows: active = growth percent below 10; inactive = the rest.
Reported values of growth for individual entries
experimental.readout: growth

molecule=CN(C)c1ccc(/C=C(\C#N)c2nc3ccccc3c(=O)[nH]2)cc1 measured_result="108% (inactive)"
molecule=C=C1C(=O)O[C@H]2[C@H]1CC/C(COC(=O)NCc1ccc(Cn3c(=O)sn(CCCl)c3=O)cc1)=C\CC[C@@]1(C)O[C@@H]21 measured_result="-21.4% (active)"
molecule=NNC(=O)c1ccccc1N measured_result="122% (inactive)"
molecule=COC(=O)c1c(C)nc(C)c2c1C(=O)C(Br)=C(NCCCCO)C2=O measured_result="24.1% (inactive)"
molecule=O=C1CCC(=O)CC1 measured_result="97.7% (inactive)"
molecule=C=C1C(=O)O[C@H]2[C@H]1CC/C(COC(=O)CSCC(=O)OC/C1=C/CC[C@@]3(C)O[C@H]3[C@H]3OC(=O)C(=C)[C@@H]3CC1)=C\CC[C@@]1(C)O[C@@H]21 measured_result="-42% (active)"
molecule=FC(F)(F)c1ccccc1-c1cn2c(ccc3ccccc32)n1 measured_result="48.1% (inactive)"
molecule=COc1cc(CNCCc2ccc(Cl)cc2)cc(OC)c1O measured_result="54.4% (inactive)"
molecule=CC/C=C\C[C@@H]1C/C=C2/C(=O)C=C[C@H]2C/C=C\CCCC(=O)O1 measured_result="-26% (active)"
molecule=O=C1CCCCC=C1C[N+](=O)[O-] measured_result="0.0104% (active)"
molecule=COc1ccc(/C=C2\CN(Cc3cn(CCCNc4ccnc5cc(Cl)ccc45)nn3)C/C(=C\c3ccc(OC)cc3)C2=O)cc1 measured_result="53.1% (inactive)"
molecule=Clc1ccc(/C=C/c2ccccn2)c(Cl)c1 measured_result="86% (inactive)"
molecule=O=C(Nc1cccc([N+](=O)[O-])c1)NN1CCCCCC1 measured_result="112% (inactive)"
molecule=COc1cccc(/C=C/C(=O)c2cc3c(N)c(C(=O)Nc4ccccc4C)sc3nc2C)c1 measured_result="26.3% (inactive)"
molecule="CN1/C(=C\\C(I)C(I)C2=[N+](C)c3ccccc3C2(C)C)C(C)(C)c2ccccc21 (configuration not stated)" measured_result="-20.1% (active)"
molecule=O=C1C=CC(=O)N1c1ccc(Cc2ccc(N3C(=O)C=CC3=O)cc2)cc1 measured_result="9.02% (active)"
molecule=COc1ccc2nc(NC(=O)Nc3c(F)cccc3F)sc2c1 measured_result="79.1% (inactive)"
molecule=CCN(CC)Cc1cc(Nc2cc(C(F)(F)F)c(C#N)c3nc4ccccc4n23)ccc1O measured_result="-10.9% (active)"
molecule="Oc1ccc(CCC2CCNc3ccccc32)cc1 (configuration not stated)" measured_result="86.9% (inactive)"
molecule=CCNCc1ccccc1 measured_result="101% (inactive)"
molecule=Nc1cc2c(cc1Br)-c1cc(Cl)ccc1C2=O measured_result="83.8% (inactive)"
molecule="COc1cc2c(c(OC)c1OC)C(=O)CC(c1cccc(C(=O)Nc3ccc(C#N)cc3)c1)O2 (configuration not stated)" measured_result="47% (inactive)"

* * *

Reported values of growth for individual entries
Tested on: HL-60(TB) leukemia
Test: NCI-60 one-dose screen, 48 h (100 = growth as untreated, 0 = no growth, -100 = all killed)
Details: 10 µM unless noted
Compounds without any hit were thinned out: in the full panel of roughly 83,000, 20% have a hit.
experimental.readout: growth (%)

molecule=COC(=O)[C@]12CC[C@@H](C)[C@H](C)[C@@H]1C1=CC[C@@H]3[C@@]4(C)CC(=O)[C@H](O)[C@@]5(C)COC(=C45)C[C@@]3(C)[C@]1(C)CC2 test_system="HL-60(TB) leukemia" experimental_readout=growth measured_result=-37.5
molecule=Cn1cc(-c2noc(-c3cn(C)c4ncc(Br)cc34)n2)c2cc(Cl)ccc21 test_system="HL-60(TB) leukemia" experimental_readout=growth measured_result=102
molecule=Cc1ccc(S(=O)(=O)NN/C(N)=N\S(=O)(=O)c2cc(C)c(Cl)cc2SCc2ccccc2)cc1 test_system="HL-60(TB) leukemia" experimental_readout=growth measured_result=83.6
molecule=CCCCCCCC/C=C/CCCCCCCC1=NCC[N+]1(CCO)CCO test_system="HL-60(TB) leukemia" experimental_readout=growth measured_result=31.7
molecule=Cc1cnc(C(=O)Nc2nc3ccc(S(=O)(=O)Nc4ccc(C5(C(F)(F)F)CC5)cc4)cc3[nH]2)cn1 test_system="HL-60(TB) leukemia" experimental_readout=growth measured_result=-25.1
molecule=O=S(=O)(c1ccccc1)N1CCCc2ccccc21 test_system="HL-60(TB) leukemia" experimental_readout=growth measured_result=103
molecule=COc1cc(-c2cc(-c3ccc(Nc4ccnc5cc(Cl)ccc45)cc3)nc(N3CCOCC3)n2)cc(OC)c1OC test_system="HL-60(TB) leukemia" experimental_readout=growth measured_result=68.2
molecule="CCOc1cc2c(cc1OCC)C(c1cc(C)c(O)c(C)c1)NCC2 (stereo not given)" test_system="HL-60(TB) leukemia" experimental_readout=growth measured_result=81.7
molecule=COc1ccc2c(c1)c(-c1nc(-c3cn(C)c4ncccc34)cs1)cn2CCO test_system="HL-60(TB) leukemia" experimental_readout=growth measured_result=82.4
molecule=C=CCN1C(=O)/C(=C\c2ccc3c(c2)CCC3)SC1=S test_system="HL-60(TB) leukemia" experimental_readout=growth measured_result=79

* * *

System: SW-620 colon
Experiment: NCI-60 one-dose screen, 48 h
Details: 10 µM unless noted
About 83,000 compounds went through this panel and 20% of them were active in at least one assay; those are over-represented in the sample as a whole. Active and inactive are the calls of the source. How the source made its calls: active means growth percent below 10; inactive means the rest.
Labels: T = active, F = inactive

compound="CCC1([N+](=O)[O-])COP(=O)(NCc2cccnc2)OC1 (stereo not drawn)" test_system="SW-620 colon" label=F
compound=CCCCOC(=O)c1ccccc1C(=O)O.CCCCOC(=O)c1ccccc1C(=O)O.[Cu+2] test_system="SW-620 colon" label=F
compound="COc1cccc2c1C(=O)c1c(O)c3c(c(O)c1C2=O)CC(O)(/C(C)=N/NC(=O)CCC(=O)N/N=C(\\C)C1(O)Cc2c(O)c4c(c(O)c2C(OC2CC(N)C(O)C(C)O2)C1)C(=O)c1c(OC)cccc1C4=O)CC3OC1CC(N)C(O)C(C)O1 (stereo not drawn)" test_system="SW-620 colon" label=T
compound=Nc1nc(N)c(-c2ccc(Cl)c(Cl)c2)c(/C=C/c2ccc(S(=O)(=O)F)cc2)n1 test_system="SW-620 colon" label=F
compound="COc1cc(C2=NN(c3ccccc3)C(c3sc(N(CCCl)CCCl)nc3Cl)C2)cc(OC)c1OC (stereo not drawn)" test_system="SW-620 colon" label=F
compound=CO[C@@H]([CH2][Hg][S]C#N)[C@@H]([CH2][Hg][S]C#N)OC test_system="SW-620 colon" label=F
compound="NC(Cc1ccc(O)cc1)C(=O)N/N=C/c1ccc(N(CCCl)CCCl)cc1 (stereo not drawn)" test_system="SW-620 colon" label=F
compound=CC1(C)N=C(N)N=C(N)N1c1ccc(CCCCc2ccc(S(=O)(=O)F)cc2)c(Cl)c1 test_system="SW-620 colon" label=F

* * *

System: SN12C renal
Experiment: NCI-60 one-dose screen, 48 h
Conditions: 10 µM unless noted
Compounds without any hit were thinned out: in the full panel of roughly 83,000, 20% have a hit. Activity calls are given as the source filed them. Rule for the calls: active = growth percent below 10; inactive = the rest.
Labels: true (1) for active, false (0) for inactive

molecule=COc1ccccc1N1CCN(CCc2c[nH]c3cc4c(cc23)OCO4)CC1 label="false (0)"
molecule=CC1(C)N=C(N)N=C(N)N1c1cccc(C(=O)Nc2cccc(S(=O)(=O)F)c2)c1 label="false (0)"
molecule=CC(=O)[O][Hg][c]1ccccc1 label="true (1)"
molecule=CCOc1cc(/C=N\Nc2nnc(C)n2N)c(C)cc1N(CCCl)CCCl label="false (0)"
molecule="Cc1ccc(C(=O)C2CN(C)CCC2(O)c2ccc(C)cc2)cc1 (stereo not drawn)" label="false (0)"
molecule=ClCCN(CCCl)c1ccc(C=NCCc2c[nH]c3ccccc23)cc1 label="false (0)"
molecule=COc1ccc(CN2CCN(Cc3ccccc3)CC2)c(O)c1 label="false (0)"
molecule="CC(C)(C)NCC(O)c1ccccc1Cl (stereo not drawn)" label="false (0)"
molecule=Clc1ccc(SSC(Cl)(Cl)Cl)cc1 label="false (0)"
molecule=n1nc(-c2nonc2-c2nn[nH]n2)n[nH]1 label="false (0)"
molecule="CC(N)Cc1ccc(O)cc1 (stereo not drawn)" label="false (0)"
molecule="CCOc1ccc(C(O)CN(C)Cc2ccccc2)cc1Cl (stereo not drawn)" label="false (0)"
molecule=Nc1ccc([N+](=O)[O-])c2c1Oc1ccccc1O2 label="false (0)"
molecule=CO[C@@H]([CH2][Hg][S]C#N)[C@@H]([CH2][Hg][S]C#N)OC label="false (0)"
molecule="C=CCN1C(=O)C(CC)(CCC(C)C)C(=O)NC1=S (stereo not drawn)" label="false (0)"
molecule=Cc1cc(CCl)c(C)cc1CCl label="false (0)"
molecule=O=[N+]([O-])c1cc([N+](=O)[O-])c(Cl)c(Cl)c1Cl label="false (0)"
molecule="O=C(O)C1[O][Sb][O]C1C(=O)O (stereo not drawn)" label="false (0)"
molecule="CCC1([N+](=O)[O-])COP(=O)(NCc2cccnc2)OC1 (stereo not drawn)" label="false (0)"
molecule=O=c1cc[nH]c(=O)o1 label="false (0)"
molecule=S=P(N1CCCCCC1)(N1CC1)N1CC1 label="false (0)"
molecule="CC1([N+](=O)[O-])COP(=O)(Nc2ccc(F)cc2)OC1 (stereo not drawn)" label="false (0)"
molecule=CCOCC1(CCc2ccccc2)C(=O)NC(=S)NC1=O label="false (0)"
molecule=c1ccc2nc(OCCN3CC3)ccc2c1 label="false (0)"
molecule="C#CC1(O)CCC2(C)C(CCC3C4CCC(=O)C4(C)CCC32)C1 (stereo not drawn)" label="false (0)"
molecule="CCCCN(CCCC)CC(O)c1ccccc1 (stereo not drawn)" label="false (0)"
molecule=O=C(O)CNC(=O)c1ccccc1 label="false (0)"
molecule=CCC(C)(C)O label="false (0)"
molecule=O=C(CCc1ccco1)NC1CCN(CC2(c3ccc(Cl)cc3)CCC2)CC1 label="true (1)"
molecule=C/C(=C\c1cc(C(F)(F)F)n(-c2ccc(N)cc2)n1)[C@@H]1C[C@@H]2O[C@]2(C)CCC[C@H](C)[C@H](O)[C@@H](C)C(=O)C(C)(C)[C@@H](O)CC(=O)O1 label="false (0)"
molecule=CC(=O)Oc1ccc(Cl)cc1 label="false (0)"
molecule=Cc1ccc(C[As+](c2ccccc2)(c2ccccc2)c2ccccc2)cc1 label="true (1)"
molecule=NCCc1cc(O)c(O)cc1O label="false (0)"
molecule=CC(=O)[O][Hg][c]1nc2c(c(=O)n(C)c(=O)n2C)n1C label="false (0)"
molecule="C=CC(=O)NC(O)C(Cl)(Cl)Cl (stereo not drawn)" label="false (0)"
molecule=Cc1cc([N+](=O)[O-])c(Cl)cc1NS(=O)(=O)c1ccccc1 label="false (0)"
molecule=COc1ccc(/C=C\c2cc(OC)c(OC)c(OC)c2)cc1N/C=C\C(=O)c1c[nH]c2ccccc12 label="false (0)"
molecule=C/C1=C/C(=O)O[C@@H]2C[C@@H](CC[C@H](C)/C=C\C=C\CC1)O[C@@](OCCc1ccccc1)([C@@H]1CSC(=O)N1)C2 label="false (0)"
molecule=O=C(C(=O)N1CCCC1)c1cn(CCCCCn2cc(C(=O)C(=O)N3CCCC3)c3ccccc32)c2ccccc12 label="false (0)"
molecule="CC(=O)[O][Hg][CH2]C1(C)COC(C)([CH2][Hg][O]C(C)=O)CO1 (stereo not drawn)" label="true (1)"
molecule=COC(C)(C)CCC[C@H](C)C/C=C/C(C)=C/C(=O)OC(C)C label="false (0)"
molecule=CNC(=O)Oc1cccc(N(C)C)c1 label="false (0)"
molecule="CC12CCC(=O)C=C1C(O)CC1C2CCC2(C)C(O)CCC12 (stereo not drawn)" label="false (0)"
molecule=CC(C)(NC(=O)c1nn(CCCCCF)c2ccccc12)c1ccccc1 label="false (0)"
molecule="NC(Cc1ccc(O)cc1)C(=O)N/N=C/c1ccc(N(CCCl)CCCl)cc1 (stereo not drawn)" label="false (0)"
molecule="CC12CCC3C(CC=C4CC(O)CCC43C)C1C/C(=C\\N1CCOCC1)C2=O (stereo not drawn)" label="false (0)"
molecule="CC(=O)O[C@H]1CCC2C3CCC4=C/C(=N/O)CCC4(C)C3CCC21C (stereo partly drawn)" label="false (0)"
molecule="O=C(O)CC(Br)C(=O)CBr (stereo not drawn)" label="false (0)"
